# EXPERIMENTAL_TARGET: human Nav1.7 (Homo sapiens, UniProt Q15858)
# Sequence (Q15858 whole entry): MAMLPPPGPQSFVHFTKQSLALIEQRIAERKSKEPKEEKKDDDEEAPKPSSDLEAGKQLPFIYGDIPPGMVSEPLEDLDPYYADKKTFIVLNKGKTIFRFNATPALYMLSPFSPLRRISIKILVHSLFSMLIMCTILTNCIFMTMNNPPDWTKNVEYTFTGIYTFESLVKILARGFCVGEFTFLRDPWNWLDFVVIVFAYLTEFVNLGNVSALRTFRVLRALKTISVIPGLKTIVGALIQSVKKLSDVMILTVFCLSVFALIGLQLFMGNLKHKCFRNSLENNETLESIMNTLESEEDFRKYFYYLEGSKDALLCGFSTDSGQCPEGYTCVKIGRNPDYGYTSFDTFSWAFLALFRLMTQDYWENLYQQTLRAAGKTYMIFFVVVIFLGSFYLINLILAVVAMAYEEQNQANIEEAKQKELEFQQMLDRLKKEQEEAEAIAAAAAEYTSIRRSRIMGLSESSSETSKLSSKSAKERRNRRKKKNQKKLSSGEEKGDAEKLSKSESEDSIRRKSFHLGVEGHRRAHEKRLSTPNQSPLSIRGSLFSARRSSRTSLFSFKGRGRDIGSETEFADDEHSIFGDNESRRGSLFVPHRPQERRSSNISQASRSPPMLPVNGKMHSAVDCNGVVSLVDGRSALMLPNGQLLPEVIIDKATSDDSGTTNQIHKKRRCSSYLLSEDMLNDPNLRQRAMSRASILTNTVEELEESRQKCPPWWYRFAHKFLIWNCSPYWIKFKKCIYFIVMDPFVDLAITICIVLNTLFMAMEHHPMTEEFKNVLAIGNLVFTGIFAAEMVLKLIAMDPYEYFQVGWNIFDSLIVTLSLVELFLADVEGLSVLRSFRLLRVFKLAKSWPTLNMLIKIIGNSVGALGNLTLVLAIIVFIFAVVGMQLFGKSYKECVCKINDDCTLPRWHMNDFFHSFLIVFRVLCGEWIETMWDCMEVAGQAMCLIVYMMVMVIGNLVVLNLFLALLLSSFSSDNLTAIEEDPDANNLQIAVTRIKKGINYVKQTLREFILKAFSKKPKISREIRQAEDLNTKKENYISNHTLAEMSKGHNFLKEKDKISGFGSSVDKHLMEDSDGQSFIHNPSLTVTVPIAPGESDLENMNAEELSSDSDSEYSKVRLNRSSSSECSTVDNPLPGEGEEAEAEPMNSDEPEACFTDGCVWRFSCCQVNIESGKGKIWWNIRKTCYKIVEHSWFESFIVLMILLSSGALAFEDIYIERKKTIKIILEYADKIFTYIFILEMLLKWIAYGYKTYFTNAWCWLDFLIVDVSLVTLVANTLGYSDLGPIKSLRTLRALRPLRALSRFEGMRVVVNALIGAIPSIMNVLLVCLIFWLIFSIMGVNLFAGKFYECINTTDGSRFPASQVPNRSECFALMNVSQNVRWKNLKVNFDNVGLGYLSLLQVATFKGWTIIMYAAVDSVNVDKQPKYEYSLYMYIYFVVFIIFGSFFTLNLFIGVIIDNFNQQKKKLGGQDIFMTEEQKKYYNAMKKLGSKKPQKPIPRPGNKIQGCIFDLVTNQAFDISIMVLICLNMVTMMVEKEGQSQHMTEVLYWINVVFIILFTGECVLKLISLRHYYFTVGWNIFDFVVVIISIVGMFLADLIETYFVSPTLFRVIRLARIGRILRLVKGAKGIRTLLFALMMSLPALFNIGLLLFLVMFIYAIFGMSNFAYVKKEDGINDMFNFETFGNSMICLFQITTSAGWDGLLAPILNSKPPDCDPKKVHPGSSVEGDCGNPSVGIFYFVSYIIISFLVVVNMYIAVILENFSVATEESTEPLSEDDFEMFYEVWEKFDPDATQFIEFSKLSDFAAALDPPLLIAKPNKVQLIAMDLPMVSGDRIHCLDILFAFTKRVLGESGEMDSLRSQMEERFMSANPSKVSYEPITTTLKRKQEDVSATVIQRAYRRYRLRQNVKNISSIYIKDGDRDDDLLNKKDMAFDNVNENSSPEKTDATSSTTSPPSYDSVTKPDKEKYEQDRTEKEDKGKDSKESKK
# PROCEDURE_SUMMARY: FRET assay (EFS, FDSS) on CHO cells expressing human NaV1.7 channels
# STUDY_CONDITIONS: FRET assay, CHO cells expressing human NaV1.7; read-out: IC50 against Nav1.7
MEASURED_ATTRIBUTE: IC50

Worked set:
{"columns": ["COMPOUND", "IC50"],
 "data": [
  ["CC(C)COc1cc(N2CCN(C(=O)CCn3ccc4ccccc43)CC2)ncn1 [Example 59]", "< 3 µM"],
  ["Cc1onc(-c2ccccc2)c1C(=O)N1CCN(c2cc(OCC(F)(F)F)ncn2)CC1 [Example 245]", "< 3 µM"]
]}

API: the following record is the query input.
Input line: Any idea what its IC50 is? The compound is Cc1nc(-c2cccc(C(=O)N3CCN(c4cc(OCC(C)C)ncn4)CC3)c2)cs1 [Example 187]
Output line: < 3 µM

---

# EXPERIMENTAL_TARGET: human NaV1.3 (Homo sapiens)
# Sequence (Q9NY46 whole entry): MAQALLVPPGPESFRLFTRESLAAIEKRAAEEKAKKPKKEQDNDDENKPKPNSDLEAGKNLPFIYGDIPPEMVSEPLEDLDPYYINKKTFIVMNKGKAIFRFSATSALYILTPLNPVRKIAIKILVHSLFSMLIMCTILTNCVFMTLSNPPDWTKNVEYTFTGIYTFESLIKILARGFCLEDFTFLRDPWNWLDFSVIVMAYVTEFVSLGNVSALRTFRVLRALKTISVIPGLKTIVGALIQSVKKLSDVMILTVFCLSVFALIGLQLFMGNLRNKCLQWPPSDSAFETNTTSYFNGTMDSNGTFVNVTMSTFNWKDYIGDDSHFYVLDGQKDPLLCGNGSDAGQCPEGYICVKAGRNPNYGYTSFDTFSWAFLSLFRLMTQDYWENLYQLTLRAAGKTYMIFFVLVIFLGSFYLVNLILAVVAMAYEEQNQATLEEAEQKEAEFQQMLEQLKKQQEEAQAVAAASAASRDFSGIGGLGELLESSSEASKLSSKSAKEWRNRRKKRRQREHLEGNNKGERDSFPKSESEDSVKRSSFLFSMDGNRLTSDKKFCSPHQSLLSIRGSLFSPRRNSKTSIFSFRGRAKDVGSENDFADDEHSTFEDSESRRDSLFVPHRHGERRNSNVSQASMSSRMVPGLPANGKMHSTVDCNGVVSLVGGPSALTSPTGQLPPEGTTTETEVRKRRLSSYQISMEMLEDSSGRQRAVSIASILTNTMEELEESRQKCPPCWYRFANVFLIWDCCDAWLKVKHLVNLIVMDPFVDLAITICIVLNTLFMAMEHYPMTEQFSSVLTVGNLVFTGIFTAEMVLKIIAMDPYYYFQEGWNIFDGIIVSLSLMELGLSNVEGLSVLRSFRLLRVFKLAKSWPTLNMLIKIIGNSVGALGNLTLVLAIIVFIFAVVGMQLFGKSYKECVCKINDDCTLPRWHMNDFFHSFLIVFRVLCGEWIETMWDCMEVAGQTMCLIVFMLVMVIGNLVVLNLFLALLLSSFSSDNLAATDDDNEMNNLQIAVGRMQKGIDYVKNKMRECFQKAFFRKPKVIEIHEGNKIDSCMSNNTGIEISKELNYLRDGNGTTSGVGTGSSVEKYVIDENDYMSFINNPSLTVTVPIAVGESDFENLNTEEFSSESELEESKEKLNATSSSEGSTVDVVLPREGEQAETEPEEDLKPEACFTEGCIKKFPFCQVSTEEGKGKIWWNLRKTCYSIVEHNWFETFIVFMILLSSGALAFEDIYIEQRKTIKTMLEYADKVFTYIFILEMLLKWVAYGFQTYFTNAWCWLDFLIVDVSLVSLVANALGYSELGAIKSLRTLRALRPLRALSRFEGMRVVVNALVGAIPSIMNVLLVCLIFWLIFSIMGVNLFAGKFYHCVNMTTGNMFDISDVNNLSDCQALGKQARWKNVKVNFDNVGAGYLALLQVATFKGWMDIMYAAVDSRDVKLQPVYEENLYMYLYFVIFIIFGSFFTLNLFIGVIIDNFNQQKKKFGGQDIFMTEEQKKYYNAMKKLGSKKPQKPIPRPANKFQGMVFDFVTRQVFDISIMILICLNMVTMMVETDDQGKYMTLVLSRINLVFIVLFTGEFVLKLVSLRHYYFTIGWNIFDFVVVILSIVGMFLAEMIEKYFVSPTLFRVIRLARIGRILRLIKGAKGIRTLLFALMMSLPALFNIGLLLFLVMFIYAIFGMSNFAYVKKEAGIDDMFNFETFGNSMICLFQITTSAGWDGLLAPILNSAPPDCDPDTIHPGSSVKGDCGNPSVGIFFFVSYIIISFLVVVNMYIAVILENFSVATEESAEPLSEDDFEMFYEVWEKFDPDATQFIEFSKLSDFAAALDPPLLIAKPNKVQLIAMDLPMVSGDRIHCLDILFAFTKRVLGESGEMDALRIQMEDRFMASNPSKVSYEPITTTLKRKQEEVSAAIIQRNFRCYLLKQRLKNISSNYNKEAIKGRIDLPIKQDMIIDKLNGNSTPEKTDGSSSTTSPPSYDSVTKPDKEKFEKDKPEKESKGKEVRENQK
# PROCEDURE_SUMMARY: FRET assay (EFS, FDSS) on HEK293 cells expressing human NaV1.3 channels
# STUDY_CONDITIONS: FRET assay, HEK293 cells expressing human NaV1.3; read-out: IC50 against Nav1.3
pIC50: −log10 of the molar value.
MEASURED_ATTRIBUTE: pIC50

Input line: Any idea what its pIC50 is? The compound is "CC(C)COc1cc(N2CCN(C(=O)COc3cccc4ncccc34)CC2)ncn1"
Output line: > 5.52
